Reference source: patent US11976072B2

# target.entity: human DGKα (Homo sapiens)
# assay.info: DGKα Biochemical Activity Assay (ADP-Glo)
# condition: recombinant DGKα 1 nM, 100 μM ATP, 18:1 DAG/POPS/octylglucoside micelles, 1 hour at 25° C.; geometric mean; read-out: HTBS DGKa 1X ATP KM IC50
pIC50: −log10 of the molar value.
Returns Y if the recorded pIC50 is greater than or equal to 8, and N otherwise.

query: Is the recorded value of pIC50 equal to or greater than 8 for this molecule? CCC(O)C#Cc1cc(F)cc(N(CC(F)F)c2nc3nnc(C)n3c3ccc(F)c(F)c23)c1 (stereo not shown)
result: N

query: What do we get for Fc1cc(F)c2c(c1)c(N1CCCc3c(C#CC4(C(F)F)CC4)cccc31)nc1nncn12 ?
result: Y

query: What do we get for Cc1nnc2nc(N3CCCc4c(C#CC5(C)CC5)cccc43)c3c(Cl)c(F)ccc3n12 ?
result: N

query: What do we get for Cc1nnc2nc(N(CC(F)F)c3cc(F)cc(C#CC(C)(C)c4ccncc4)c3)c3c(F)c(F)ccc3n12 ?
result: N

query: What do we get for CC(C)(C#N)C#Cc1cccc2c1CCCN2c1nc2nncn2c2cccc(F)c12 ?
result: Y

query: What do we get for Cc1nnc2nc(N3CCCc4c(C#Cc5ccn[nH]5)cccc43)c3c(F)cccc3n12 ?
result: N

query: What do we get for CCCCCc1cc(C2(C#Cc3cccc4c3CCCN4c3nc4nnc(C)n4c4cccc(F)c34)CC2)no1 ?
result: N

query: What do we get for Cc1nnc2nc(N(CC(F)F)c3ccnc(C#CC4(C(F)F)CC4)c3F)c3c(F)cccc3n12 ?
result: Y

query: What do we get for Cc1nnc2nc(N3CCCc4c(C#CC5(C(F)F)CC5)cccc43)c3c(Cl)c(F)ccc3n12 ?
result: Y

query: What do we get for FC(F)(F)C1(C#Cc2cccc3c2CCCN3c2nc3nncn3c3ccccc23)CC1 ?
result: N

query: What do we get for Cc1nnc2nc(N3CCOCc4c(C#CC(C)(C)NC(=O)C5(C(F)(F)F)CC5)cccc43)c3c(F)cccc3n12 ?
result: Y

---

# target.entity: human DGKα (Homo sapiens, UniProt P23743)
# Sequence (P23743 whole entry): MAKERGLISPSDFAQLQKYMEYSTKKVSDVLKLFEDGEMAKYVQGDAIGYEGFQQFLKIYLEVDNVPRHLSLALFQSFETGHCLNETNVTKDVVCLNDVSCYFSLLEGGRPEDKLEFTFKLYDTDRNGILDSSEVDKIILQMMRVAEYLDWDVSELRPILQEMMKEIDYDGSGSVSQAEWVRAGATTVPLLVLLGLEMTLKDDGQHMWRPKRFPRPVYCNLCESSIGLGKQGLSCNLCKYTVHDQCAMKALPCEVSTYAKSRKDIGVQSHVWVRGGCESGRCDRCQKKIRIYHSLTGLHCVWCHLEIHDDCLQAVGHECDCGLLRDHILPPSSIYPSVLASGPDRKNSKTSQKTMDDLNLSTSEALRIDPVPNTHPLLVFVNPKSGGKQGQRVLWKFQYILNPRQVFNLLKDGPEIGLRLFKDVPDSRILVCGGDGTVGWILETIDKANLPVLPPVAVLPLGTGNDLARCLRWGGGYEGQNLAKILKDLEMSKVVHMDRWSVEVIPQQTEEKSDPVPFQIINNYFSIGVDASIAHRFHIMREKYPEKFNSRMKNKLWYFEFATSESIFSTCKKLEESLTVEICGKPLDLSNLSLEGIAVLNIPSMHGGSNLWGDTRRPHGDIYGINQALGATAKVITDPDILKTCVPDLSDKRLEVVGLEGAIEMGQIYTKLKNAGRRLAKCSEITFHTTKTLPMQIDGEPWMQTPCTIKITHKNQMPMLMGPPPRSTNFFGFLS
# assay.info: DGKα Biochemical Activity Assay (ADP-Glo)
# condition: recombinant DGKα 1 nM, 100 μM ATP, 18:1 DAG/POPS/octylglucoside micelles, 1 hour at 25° C.; geometric mean; read-out: HTBS DGKa 1X ATP KM IC50
reported.metric: IC50 (nM)
// units = nM; emit number, no label

query: # get_value(readout='IC50', item= Cc1nnc2nc(N3CCOCc4c3ccnc4C#CC(C)(C)C(F)(F)F)c3cc(F)ccc3n12 )
result: 9.88

query: What do we get for Cc1nnc2nc(N3CCCc4c(C#CC(C)(C)c5ccccn5)cccc43)c3c(F)cccc3n12 ?
result: 124

query: What do we get for Cc1nnc2nc(N3CCCc4c(C#CC5(O)C[C@H]6C[C@H]6C5)cccc43)c3c(F)cccc3n12 (stereo partly shown) ?
result: 3.83

query: What do we get for Cc1nnc2nc(N3CCOCc4c(C#CC(C)(C)C(C)(F)F)cccc43)c3c(F)cccc3n12 ?
result: 12.3

---

# target.entity: human DGKα (Homo sapiens, UniProt P23743)
# assay.info: DGKα Biochemical Activity Assay (ADP-Glo);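 further: luminescent detection of ADP produced as DGKα phosphorylates DAG to phosphatidic acid, IC50 from four-parameter nonlinear curve fit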
# condition: recombinant DGKα 1 nM, 100 μM ATP, 18:1 DAG/POPS/octylglucoside micelles, 1 hour at 25° C.; geometric mean; read-out: HTBS DGKa 1X ATP KM IC50
Assign IC50 to each entry below.
// units = nM; emit number, no label

query: # get_value(readout='IC50', item= Cc1nnc2nc(N3CCCc4c(N5CCC(C)(C#N)CC5)cccc43)c3c(F)cccc3n12 )
result: 25.6

query: What do we get for Cc1nnc2nc(N3CCN(C)Cc4c(C#CC(C)(C)C(F)(F)F)cccc43)c3cc(F)ccc3n12 ?
result: 14.8

query: What do we get for Cc1nnc2nc(N(CC(F)F)c3ccnc(C#CC(C)(C)C(F)(F)F)c3F)c3c(F)c(F)ccc3n12 ?
result: 15.1

query: What do we get for CCC(C)(O)C#Cc1cc(F)cc(N(CC(F)F)c2nc3nnc(C)n3c3ccc(F)c(F)c23)c1 (stereo not shown) ?
result: 38.6
